Target: T1, Human CD3eg linker (human)
T1 construct: Single-chain construct; also called recombinant human CD3
T1 chain: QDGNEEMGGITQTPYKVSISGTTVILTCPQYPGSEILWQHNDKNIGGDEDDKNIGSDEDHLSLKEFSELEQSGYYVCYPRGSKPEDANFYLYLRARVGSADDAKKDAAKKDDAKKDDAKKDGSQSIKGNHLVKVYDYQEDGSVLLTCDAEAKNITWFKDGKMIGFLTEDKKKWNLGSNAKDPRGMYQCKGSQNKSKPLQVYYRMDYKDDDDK
Assay: SPR; fold vs parent H183/L072
OUTCOME_MEASURE: fold change of affinity (fold)
Use fold as the unit, but write only the number.

Below, 2 binders whose answers are already recorded.
{"columns": ["BINDER", "MEASUREMENT_UNIT", "fold change of affinity"],
 "data": [
  ["H183/L072 VL S52W (antibody, name in Kabat numbering, V domains shown) VH: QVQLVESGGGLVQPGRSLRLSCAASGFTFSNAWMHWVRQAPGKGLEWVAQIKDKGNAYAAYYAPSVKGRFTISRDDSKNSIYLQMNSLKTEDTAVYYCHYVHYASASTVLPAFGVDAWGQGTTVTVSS VL: DIVMTQSPLSLPVTPGEPASISCQASQELVHMNRNTYLHWYQQKPGQAPRLLIYKVWNRFPGVPDRFSGSGSGTDFTLKISRVEAEDVGVYYCAQGTSVPFTFGQGTKLEIK", "fold", 1.4],
  ["H183/L072 VL S52Q (antibody, name in Kabat numbering, V domains shown) VH: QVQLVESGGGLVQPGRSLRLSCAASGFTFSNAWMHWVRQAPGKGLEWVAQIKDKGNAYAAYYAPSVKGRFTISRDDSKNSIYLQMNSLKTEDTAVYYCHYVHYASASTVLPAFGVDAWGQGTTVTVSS VL: DIVMTQSPLSLPVTPGEPASISCQASQELVHMNRNTYLHWYQQKPGQAPRLLIYKVQNRFPGVPDRFSGSGSGTDFTLKISRVEAEDVGVYYCAQGTSVPFTFGQGTKLEIK", "fold", 1.4]
]}

So for H183/L072 VL T92D (antibody, name in Kabat numbering, V domains shown) VH: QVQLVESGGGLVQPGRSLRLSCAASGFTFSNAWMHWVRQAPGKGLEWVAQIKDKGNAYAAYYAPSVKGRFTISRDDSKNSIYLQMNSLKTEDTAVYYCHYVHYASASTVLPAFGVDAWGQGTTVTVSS VL: DIVMTQSPLSLPVTPGEPASISCQASQELVHMNRNTYLHWYQQKPGQAPRLLIYKVSNRFPGVPDRFSGSGSGTDFTLKISRVEAEDVGVYYCAQGDSVPFTFGQGTKLEIK , the logged fold change of affinity turned out to be 0

So for H183/L072 VL S26V (antibody, name in Kabat numbering, V domains shown) VH: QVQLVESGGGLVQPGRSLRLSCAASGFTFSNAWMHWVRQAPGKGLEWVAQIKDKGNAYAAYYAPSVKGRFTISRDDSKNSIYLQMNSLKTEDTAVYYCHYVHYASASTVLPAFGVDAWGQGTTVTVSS VL: DIVMTQSPLSLPVTPGEPASISCQAVQELVHMNRNTYLHWYQQKPGQAPRLLIYKVSNRFPGVPDRFSGSGSGTDFTLKISRVEAEDVGVYYCAQGTSVPFTFGQGTKLEIK , the logged fold change of affinity turned out to be 0.6

So for H183/L072 VL R29Y (antibody, name in Kabat numbering, V domains shown) VH: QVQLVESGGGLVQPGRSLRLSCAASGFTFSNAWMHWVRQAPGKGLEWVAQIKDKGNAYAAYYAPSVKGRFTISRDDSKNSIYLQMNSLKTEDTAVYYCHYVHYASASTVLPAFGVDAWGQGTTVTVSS VL: DIVMTQSPLSLPVTPGEPASISCQASQELVHMNYNTYLHWYQQKPGQAPRLLIYKVSNRFPGVPDRFSGSGSGTDFTLKISRVEAEDVGVYYCAQGTSVPFTFGQGTKLEIK , the logged fold change of affinity turned out to be 0.5
